// data source = ChEMBL document CHEMBL1138404

protocol-notes: Cytotoxicity against human SK-MEL-2 cell line
Assay type: cell-based
conditions-used: SK-MEL-2 cells, read-out: ED50 (the source's name)
Label Yes when CC50 is strictly below 5 µg/mL; otherwise label No.

These solved cases illustrate the format of a correct answer.
{"compound": "O=C1NC[C@@H](c2c[nH]c3cc(Br)ccc23)N=C1c1c[nH]c2ccccc12 [(R)-6'-DEBROMOHAMACANTHIN B]", "class-assignment": "No"}
{"compound": "O=C1N[C@H](c2c[nH]c3ccccc23)CN[C@H]1c1c[nH]c2cc(Br)ccc12", "class-assignment": "No"}
{"compound": "O=C(C1=NC(c2c[nH]c3cc(Br)ccc23)CN1)c1c[nH]c2cc(Br)ccc12 (centres undefined) [SPONGOTINE C]", "class-assignment": "Yes"}
{"compound": "O=C1N[C@H](c2c[nH]c3cc(Br)ccc23)CN[C@H]1c1c[nH]c2ccccc12", "class-assignment": "No"}
{"compound": "O=C1NC[C@@H](c2c[nH]c3ccccc23)N[C@H]1c1c[nH]c2cc(Br)ccc12", "class-assignment": "No"}

**Q:** Report whether reported CC50 is lower than 5 µg/mL (strictly) for COc1cccc2c1C(=O)c1c(O)c3c(c(O)c1C2=O)C[C@@](O)(C(=O)CO)C[C@@H]3O[C@H]1C[C@H](N)[C@H](O)[C@H](C)O1 [DOXORUBICIN]
**A:** Yes

**Q:** Report whether reported CC50 is lower than 5 µg/mL (strictly) for O=C1NC[C@H](c2c[nH]c3cc(Br)ccc23)N=C1c1c[nH]c2cc(Br)ccc12 [HAMACANTHIN B]
**A:** Yes
